# measurement target: Gamma-aminobutyric acid receptor subunit alpha-1 (Rattus norvegicus, UniProt P62813); also: assay procedure not described here
# Sequence (P62813 whole entry): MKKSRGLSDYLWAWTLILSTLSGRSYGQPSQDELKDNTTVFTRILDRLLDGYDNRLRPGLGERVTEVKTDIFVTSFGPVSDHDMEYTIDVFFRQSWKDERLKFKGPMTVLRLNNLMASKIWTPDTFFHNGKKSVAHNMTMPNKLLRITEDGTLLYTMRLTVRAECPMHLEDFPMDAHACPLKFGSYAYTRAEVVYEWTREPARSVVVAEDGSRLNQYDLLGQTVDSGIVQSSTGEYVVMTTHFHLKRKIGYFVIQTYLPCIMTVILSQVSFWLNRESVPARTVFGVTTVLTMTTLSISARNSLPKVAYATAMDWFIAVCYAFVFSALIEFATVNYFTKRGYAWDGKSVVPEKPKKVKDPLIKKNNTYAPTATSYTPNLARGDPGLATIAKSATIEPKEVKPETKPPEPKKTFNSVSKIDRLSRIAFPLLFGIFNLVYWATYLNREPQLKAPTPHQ
# Format: functional
Would you mind telling me the reported AC50 of each entry?

-- ask Identify the reported AC50 for the following entry. CC(=O)NCCCS(=O)(=O)O [ACAMPROSATE]
-- reply > 30 µM

-- ask Identify the reported AC50 for the following entry. COC(=O)C1=C(C)NC(C)=C(C(=O)OC2CCCN(Cc3ccccc3)C2)C1c1cccc([N+](=O)[O-])c1 (configuration not stated)
-- reply > 30 µM

-- ask Identify the reported AC50 for the following entry. CN(C)CCC(c1ccc(Cl)cc1)c1ccccn1 (configuration not stated)
-- reply > 10 µM

-- ask Identify the reported AC50 for the following entry. CCOC(=O)[N-]c1cn(N2CCOCC2)n[o+]1
-- reply > 30 µM

-- ask Identify the reported AC50 for the following entry. Cc1ccc(-n2nccn2)c(C(=O)N2CCN(c3nc4cc(Cl)ccc4o3)CC[C@H]2C)c1
-- reply > 30 µM

-- ask Identify the reported AC50 for the following entry. COc1ccccc1N1CCN(CC(O)COc2cccc3ccccc23)CC1 (configuration not stated)
-- reply > 30 µM

-- ask Identify the reported AC50 for the following entry. COC1=C(OC)C(=O)C(C/C=C(\C)CC/C=C(\C)CC/C=C(\C)CC/C=C(\C)CC/C=C(\C)CC/C=C(\C)CC/C=C(\C)CC/C=C(\C)CC/C=C(\C)CCC=C(C)C)=C(C)C1=O
-- reply > 30 µM

-- ask Identify the reported AC50 for the following entry. O=C(O)C1=C(CSc2nnnn2CS(=O)(=O)O)CS[C@@H]2[C@H](NC(=O)[C@H](O)c3ccccc3)C(=O)N12
-- reply > 30 µM

-- ask Identify the reported AC50 for the following entry. CC1(C)NC(=O)N(c2ccc([N+](=O)[O-])c(C(F)(F)F)c2)C1=O [NILUTAMIDE]
-- reply > 30 µM

-- ask Identify the reported AC50 for the following entry. COC(=O)[C@H]1[C@H]2C[C@@H]3c4[nH]c5cc(OC)ccc5c4CCN3C[C@H]2C[C@@H](OC(=O)/C=C/c2cc(OC)c(OC)c(OC)c2)[C@@H]1OC
-- reply > 10 µM

-- ask Identify the reported AC50 for the following entry. CN1C(=O)CCS(=O)(=O)C1c1ccc(Cl)cc1 (configuration not stated)
-- reply > 10 µM

-- ask Identify the reported AC50 for the following entry. Fc1ccc(C(c2ccccc2)(c2ccccc2F)n2ccnc2)cc1 (configuration not stated)
-- reply > 30 µM

-- ask Identify the reported AC50 for the following entry. C[C@H](CSC(=O)c1ccccc1)C(=O)N1C[C@@H](Sc2ccccc2)C[C@H]1C(=O)O
-- reply > 10 µM

-- ask Identify the reported AC50 for the following entry. CO[C@@H]1[C@@H](O[C@@H]2O[C@H](C)[C@@H](O[C@H]3C[C@@](C)(O)[C@@H](OC(=O)CC(C)C)[C@H](C)O3)[C@H](N(C)C)[C@H]2O)[C@@H](CC=O)C[C@@H](C)[C@@H](O)/C=C/C=C/C[C@@H](C)OC(=O)C[C@H]1OC(C)=O
-- reply > 10 µM

-- ask Identify the reported AC50 for the following entry. Clc1ccc2nsnc2c1NC1=NCCN1
-- reply > 10 µM

-- ask Identify the reported AC50 for the following entry. Nc1ccn([C@H]2CC[C@@H](CO)O2)c(=O)n1
-- reply > 10 µM

-- ask Identify the reported AC50 for the following entry. CCOC(=O)OC(C)OC1=C(C(=O)Nc2ccccn2)N(C)S(=O)(=O)c2ccccc21 (configuration not stated)
-- reply > 30 µM

* * *

# measurement target: 5-hydroxytryptamine receptor 2B (Homo sapiens); also: assay procedure not described here
# Sequence (P41595 whole entry): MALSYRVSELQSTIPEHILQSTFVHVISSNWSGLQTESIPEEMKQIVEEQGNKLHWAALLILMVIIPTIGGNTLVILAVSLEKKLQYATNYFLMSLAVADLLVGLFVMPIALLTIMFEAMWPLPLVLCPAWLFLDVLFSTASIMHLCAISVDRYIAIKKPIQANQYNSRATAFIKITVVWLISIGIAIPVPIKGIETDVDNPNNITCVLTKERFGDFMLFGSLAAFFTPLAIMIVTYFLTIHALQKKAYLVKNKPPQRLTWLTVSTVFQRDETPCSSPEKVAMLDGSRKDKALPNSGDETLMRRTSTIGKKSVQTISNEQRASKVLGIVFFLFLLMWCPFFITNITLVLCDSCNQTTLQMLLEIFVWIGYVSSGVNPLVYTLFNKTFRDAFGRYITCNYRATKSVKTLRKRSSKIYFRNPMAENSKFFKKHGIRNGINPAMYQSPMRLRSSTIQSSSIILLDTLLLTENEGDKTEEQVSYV
# Assay type: functional, cell-based
readout type: AC50

-- ask Identify the reported AC50 for the following entry. CC/C(=C(\c1ccccc1)c1ccc(OCCN(C)C)cc1)c1ccccc1 [TAMOXIFEN]
-- reply > 10 µM

-- ask Identify the reported AC50 for the following entry. C=CCN1CCCC1CNC(=O)c1cc(S(N)(=O)=O)cc(OC)c1OC (centres undefined) [VERALIPRIDE]
-- reply > 30 µM

-- ask Identify the reported AC50 for the following entry. O=C(O)CCCCCCCC(=O)O [AZELAIC ACID]
-- reply > 10 µM

-- ask Identify the reported AC50 for the following entry. Clc1ccc(CCCOCCCN2CCCCC2)cc1 [PITOLISANT]
-- reply > 30 µM

-- ask Identify the reported AC50 for the following entry. O=C(O)[C@H](CC(=O)N1C[C@H]2CCCC[C@H]2C1)Cc1ccccc1 [MITIGLINIDE]
-- reply > 10 µM

-- ask Identify the reported AC50 for the following entry. C[C@@H]1O[C@@H](O[C@@H]2C=C3CC[C@@H]4[C@H](CC[C@]5(C)[C@@H](c6ccc(=O)oc6)CC[C@]45O)[C@@]3(C)CC2)[C@H](O)[C@H](O)[C@H]1O [PROSCILLARIDIN]
-- reply > 30 µM

-- ask Identify the reported AC50 for the following entry. Nc1nc(N)nc(-c2cc(Cl)ccc2Cl)n1 [IRSOGLADINE]
-- reply 22 µM

-- ask Identify the reported AC50 for the following entry. CC[C@@H]1C(=O)OC[C@@H]1Cc1cncn1C [PILOCARPINE]
-- reply > 10 µM

-- ask Identify the reported AC50 for the following entry. Clc1ccc(C(c2ccccc2Cl)C(Cl)Cl)cc1 (centres undefined) [MITOTANE]
-- reply > 10 µM

* * *

# measurement target: 5-hydroxytryptamine receptor 3A (Homo sapiens); also: assay procedure not described here
# Sequence (P46098 whole entry): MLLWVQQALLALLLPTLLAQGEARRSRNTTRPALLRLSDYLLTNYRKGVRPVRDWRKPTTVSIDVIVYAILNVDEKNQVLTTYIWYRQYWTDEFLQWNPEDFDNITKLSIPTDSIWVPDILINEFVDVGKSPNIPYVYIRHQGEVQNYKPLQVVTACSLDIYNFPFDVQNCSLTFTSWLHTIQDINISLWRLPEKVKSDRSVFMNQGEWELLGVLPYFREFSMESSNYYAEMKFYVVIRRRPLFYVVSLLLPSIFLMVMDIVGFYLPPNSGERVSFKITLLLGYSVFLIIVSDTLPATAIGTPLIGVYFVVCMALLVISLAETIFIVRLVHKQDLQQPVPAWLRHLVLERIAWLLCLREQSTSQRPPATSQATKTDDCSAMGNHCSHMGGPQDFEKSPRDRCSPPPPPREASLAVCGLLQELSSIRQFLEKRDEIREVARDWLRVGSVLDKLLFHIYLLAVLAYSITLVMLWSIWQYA
# Type: functional
Would you mind telling me the reported AC50 of each entry?

-- ask Identify the reported AC50 for the following entry. Nc1nc(NC2CC2)c2ncn([C@H]3C=C[C@@H](CO)C3)c2n1 [ABACAVIR]
-- reply > 30 µM

-- ask Identify the reported AC50 for the following entry. C[C@]1(O)CC[C@H]2[C@@H]3CCC4=CC(=O)CC[C@]4(C)[C@@]3(F)[C@@H](O)C[C@@]21C [FLUOXYMESTERONE]
-- reply > 30 µM

-- ask Identify the reported AC50 for the following entry. COCCCN1CCC(NC(=O)c2cc(Cl)c(N)c3c2OCC3)CC1 [PRUCALOPRIDE]
-- reply 28 µM

-- ask Identify the reported AC50 for the following entry. O=[N+]([O-])c1cn2c(n1)OC[C@@H](OCc1ccc(OC(F)(F)F)cc1)C2 [PRETOMANID]
-- reply > 10 µM

-- ask Identify the reported AC50 for the following entry. Cc1nc([N+](=O)[O-])cn1-c1ccc([N+](=O)[O-])cc1 [NITREFAZOLE]
-- reply > 30 µM

-- ask Identify the reported AC50 for the following entry. N[C@@H]1[C@H]2CN(c3nc4c(cc3F)c(=O)c(C(=O)O)cn4-c3ccc(F)cc3F)C[C@@H]12 [TROVAFLOXACIN]
-- reply > 30 µM

-- ask Identify the reported AC50 for the following entry. NC(=O)CN1CC(O)CC1=O (stereo not drawn) [OXIRACETAM]
-- reply > 30 µM

-- ask Identify the reported AC50 for the following entry. CCC(C)n1ncn(-c2ccc(N3CCN(c4ccc(OCC5COC(Cn6cncn6)(c6ccc(Cl)cc6Cl)O5)cc4)CC3)cc2)c1=O (stereo not drawn) [ITRACONAZOLE]
-- reply > 30 µM

* * *

readout type: AC50

-- ask Answer briefly: AC50 recorded on Glutamate receptor ionotropic, NMDA 1 (Rattus norvegicus) for Cc1cc(C)c(NC(=O)CN(CC(=O)O)CC(=O)O)c(C)c1Br
-- reply > 30 µM

-- ask Answer briefly: AC50 recorded on Glutamate receptor ionotropic, NMDA 1 (Rattus norvegicus) for C=CCC1(C(C)CC)C(=O)NC(=O)NC1=O (stereo not given)
-- reply > 10 µM

-- ask Answer briefly: AC50 recorded on Glutamate receptor ionotropic, NMDA 1 (Rattus norvegicus) for CC(C)(C)NCC(O)COc1cccc2c1CCC(=O)N2 (stereo not given)
-- reply > 10 µM

-- ask Answer briefly: AC50 recorded on Glutamate receptor ionotropic, NMDA 1 (Rattus norvegicus) for CN1CCN(C2=Nc3ccccc3Sc3ccc(Cl)cc32)CC1
-- reply > 30 µM

-- ask Answer briefly: AC50 recorded on Glutamate receptor ionotropic, NMDA 1 (Rattus norvegicus) for Clc1ccc(C(c2ccccc2Cl)C(Cl)Cl)cc1 (stereo not given)
-- reply > 10 µM

* * *

# measurement target: Muscarinic acetylcholine receptor M2 (Homo sapiens); also: assay procedure not described here
# Sequence (P08172 whole entry): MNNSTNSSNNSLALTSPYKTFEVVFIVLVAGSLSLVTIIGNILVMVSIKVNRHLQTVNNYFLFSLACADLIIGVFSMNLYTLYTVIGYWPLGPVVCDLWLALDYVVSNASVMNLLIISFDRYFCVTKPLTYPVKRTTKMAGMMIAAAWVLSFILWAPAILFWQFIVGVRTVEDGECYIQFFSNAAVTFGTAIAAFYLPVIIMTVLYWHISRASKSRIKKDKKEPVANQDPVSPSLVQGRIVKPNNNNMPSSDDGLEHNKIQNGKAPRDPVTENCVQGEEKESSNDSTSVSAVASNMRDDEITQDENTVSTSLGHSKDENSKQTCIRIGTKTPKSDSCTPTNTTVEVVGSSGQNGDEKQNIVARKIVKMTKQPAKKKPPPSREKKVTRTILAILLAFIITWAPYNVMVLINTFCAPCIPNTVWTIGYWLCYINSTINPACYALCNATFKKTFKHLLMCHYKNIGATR
# Format: functional, cell-based
readout type: AC50

-- ask Identify the reported AC50 for the following entry. CC(=O)O[C@H]1CC[C@@]2(C)C(=CC[C@@H]3[C@@H]2CC[C@]2(C)C(c4cccnc4)=CC[C@@H]32)C1 [ABIRATERONE ACETATE]
-- reply > 30 µM

-- ask Identify the reported AC50 for the following entry. CNC1Cc2ccccc2N(C)c2ccccc21 (stereo unspecified) [METAPRAMINE]
-- reply > 30 µM

-- ask Identify the reported AC50 for the following entry. COc1ccc2c3c1O[C@H]1C(=O)CC[C@@]4(O)[C@@H](C2)N(C)CC[C@]314 [OXYCODONE]
-- reply > 30 µM

-- ask Identify the reported AC50 for the following entry. CO[C@@H]1[C@@H](O[C@@H]2O[C@H](C)[C@@H](O[C@H]3C[C@@](C)(O)[C@@H](OC(=O)CC(C)C)[C@H](C)O3)[C@H](N(C)C)[C@H]2O)[C@@H](CC=O)C[C@@H](C)[C@@H](O)/C=C/C=C/C[C@@H](C)OC(=O)C[C@H]1OC(C)=O [JOSAMYCIN]
-- reply > 10 µM

-- ask Identify the reported AC50 for the following entry. Clc1ccc(CCCOCCCN2CCCCC2)cc1 [PITOLISANT]
-- reply > 30 µM

-- ask Identify the reported AC50 for the following entry. CCN1CCN(C(=O)N[C@@H](C(=O)N[C@@H]2C(=O)N3C(C(=O)O)=C(CSc4nnnn4C)CS[C@H]23)c2ccc(O)cc2)C(=O)C1=O [CEFOPERAZONE]
-- reply > 30 µM
